Data credit: ChEMBL document CHEMBL3813616

Biological target: Protein kinase C zeta type (Homo sapiens)
Experiment: Inhibition of human PKCzeta (2 to 592 residues) assessed as enzyme activity at 1 uM using 33P ATP by radioactive filter binding assay
Design: scale not given: the % may be the effect or the level left
Readout name: Activity (%)

The examples below pair each entry with its known result.
- Nc1nccc(-c2c[nH]c3ncccc23)n1: -35
- CCCCc1cc(-c2c[nH]c3ncccc23)nc(N)n1: -43

1 = CCCCc1cc(-c2c[nH]c3ncc(-c4cnn(C5CCNCC5)c4)cc23)nc(N)n1
2 = CCc1cc(-c2c[nH]c3ncc(-c4cnn(C5CCNCC5)c4)cc23)nc(N)n1
Challenge: Compare Activity: is it lower for 1 or for 2 ? When you have decided, please share the label of that item.
Response given: 1
(1: -42%, 2: -18%)

---

Molecular target: Serine/threonine-protein kinase Chk1 (Homo sapiens)
Sequence (whole entry): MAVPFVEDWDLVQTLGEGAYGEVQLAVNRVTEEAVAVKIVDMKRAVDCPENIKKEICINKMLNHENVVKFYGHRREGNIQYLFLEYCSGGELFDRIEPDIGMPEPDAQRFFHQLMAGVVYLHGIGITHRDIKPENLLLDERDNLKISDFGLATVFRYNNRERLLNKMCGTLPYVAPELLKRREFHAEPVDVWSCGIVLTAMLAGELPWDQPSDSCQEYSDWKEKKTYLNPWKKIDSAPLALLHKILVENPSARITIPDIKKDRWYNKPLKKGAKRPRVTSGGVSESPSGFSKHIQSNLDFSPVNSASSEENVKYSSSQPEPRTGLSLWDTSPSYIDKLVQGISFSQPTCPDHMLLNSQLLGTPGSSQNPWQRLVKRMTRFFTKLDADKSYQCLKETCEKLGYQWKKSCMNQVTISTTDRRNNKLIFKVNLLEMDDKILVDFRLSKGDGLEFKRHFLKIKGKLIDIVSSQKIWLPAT
Assay: Inhibition of human CHK1 (1 to 476 residues) assessed as enzyme activity at 1 uM using 33P ATP by radioactive filter binding assay
Set-up: scale not given: the % may be the effect or the level left
Readout name: Activity (%)

- CCc1cc(-c2c[nH]c3ncc(-c4cnn(C5CCNCC5)c4)cc23)nc(N)n1: -89

a = Nc1nccc(-c2c[nH]c3ncccc23)n1 [MERIOLIN 1]
b = CCCCc1cc(-c2c[nH]c3ncc(-c4cnn(C5CCNCC5)c4)cc23)nc(N)n1
c = CCCCc1cc(-c2c[nH]c3ncccc23)nc(N)n1
Challenge: Sort these compounds on Activity so the largest reading comes first. Rank them, then answer with their labels in that order.
Response given: c, a, b
(c: -2%, a: -6%, b: -79%)

---

Assay: Efflux ratio of permeability from basolateral to apical over apical to basolateral side in human Caco2 cells
Format: ADME, cell-based
Conditions: Caco-2
Readout name: Ratio

• CCc1cc(-c2c[nH]c3ncc(-c4cnn(CC(C)C)c4)cc23)nc(N)n1 = 0.6

I = CCc1cc(-c2c[nH]c3ncc(-c4cn[nH]c4)cc23)nc(N)n1
II = CCCCc1cc(-c2c[nH]c3ncc(-c4cnn(C5CCNCC5)c4)cc23)nc(N)n1
Challenge: Compare Ratio: is it lower for I or for II ? When you have decided, please share the label of that item.
Response given: II
(II: 37, I: 54.8)

a = CCc1cc(-c2c[nH]c3ncc(-c4cnn(CCN(C)C)c4)cc23)nc(N)n1
b = CCc1cc(-c2c[nH]c3ncc(-c4cnn(C)c4)cc23)nc(N)n1
Challenge: Endpoint returns the identifier whose Ratio is numerically larger, either a or b . When you have decided, please share the label of that item.
Response given: b

---

Target: SRSF protein kinase 1 (Homo sapiens)
Test: Inhibition of human SRPK1 (2 to 654 residues) assessed as enzyme activity at 1 uM using 33P ATP by radioactive filter binding assay
Design: scale not given: the % may be the effect or the level left
Readout name: Activity (%)

• CCCCc1cc(-c2c[nH]c3ncccc23)nc(N)n1 = -12

I = CCCCc1cc(-c2c[nH]c3ncc(-c4cnn(C5CCNCC5)c4)cc23)nc(N)n1
II = Nc1nccc(-c2c[nH]c3ncccc23)n1
III = CCc1cc(-c2c[nH]c3ncc(-c4cnn(C5CCNCC5)c4)cc23)nc(N)n1
Challenge: Arrange items by their Activity values in increasing order. Rank them, then answer with their labels in that order.
Response given: I, II, III
(I: -14%, II: -9%, III: 3%)

---

Target: Ribosomal protein S6 kinase alpha-1 (Homo sapiens)
Assay: Inhibition of human MAPKAPK1alpha (1 to 735 residues) assessed as enzyme activity at 1 uM using 33P ATP by radioactive filter binding assay
Design: scale not given: the % may be the effect or the level left
Readout name: Activity (%)

The examples below pair each entry with its known result.
* CCCCc1cc(-c2c[nH]c3ncc(-c4cnn(C5CCNCC5)c4)cc23)nc(N)n1 | -88
* CCc1cc(-c2c[nH]c3ncc(-c4cnn(C5CCNCC5)c4)cc23)nc(N)n1 | -86

1 = CCCCc1cc(-c2c[nH]c3ncccc23)nc(N)n1
2 = Nc1nccc(-c2c[nH]c3ncccc23)n1
Challenge: Compare Activity: is it lower for 1 or for 2 ? When you have decided, please share the label of that item.
Response given: 2

---

Molecular target: Serine/threonine-protein kinase pim-3 (Homo sapiens)
Experiment: Inhibition of human PIM3 (2 to 326 residues) assessed as enzyme activity at 1 uM using 33P ATP by radioactive filter binding assay
Set-up: scale not given: the % may be the effect or the level left
Readout name: Activity (%)

- CCc1cc(-c2c[nH]c3ncc(-c4cnn(C5CCNCC5)c4)cc23)nc(N)n1: -91
- CCCCc1cc(-c2c[nH]c3ncc(-c4cnn(C5CCNCC5)c4)cc23)nc(N)n1: -98
- Nc1nccc(-c2c[nH]c3ncccc23)n1: -61
- CCCCc1cc(-c2c[nH]c3ncccc23)nc(N)n1: -70

---

Biological target: RAC-beta serine/threonine-protein kinase (Homo sapiens)
Test: Inhibition of human PKBbeta (120 to 481 residues) assessed as enzyme activity at 1 uM using 33P ATP by radioactive filter binding assay
Design: scale not given: the % may be the effect or the level left
Readout name: Activity (%)

A = CCCCc1cc(-c2c[nH]c3ncccc23)nc(N)n1
B = CCCCc1cc(-c2c[nH]c3ncc(-c4cnn(C5CCNCC5)c4)cc23)nc(N)n1
C = CCc1cc(-c2c[nH]c3ncc(-c4cnn(C5CCNCC5)c4)cc23)nc(N)n1
D = Nc1nccc(-c2c[nH]c3ncccc23)n1 [MERIOLIN 1]
Challenge: hey, can you rank those compounds up there by Activity? biggest number first please Rank them, then answer with their labels in that order.
Response given: C, A, D, B
(C: 3%, A: -3%, D: -9%, B: -21%)

---

Target: MAP kinase-activated protein kinase 2 (Homo sapiens)
Experiment: Inhibition of human MAPKAPK2 (46 to 400 residues) assessed as enzyme activity at 1 uM using 33P ATP by radioactive filter binding assay
Parameters: scale not given: the % may be the effect or the level left
Readout name: Activity (%)

a = CCCCc1cc(-c2c[nH]c3ncccc23)nc(N)n1
b = CCc1cc(-c2c[nH]c3ncc(-c4cnn(C5CCNCC5)c4)cc23)nc(N)n1
Challenge: Compare Activity: is it lower for a or for b ? When you have decided, please share the label of that item.
Response given: b
(b: -3%, a: 13%)

I = Nc1nccc(-c2c[nH]c3ncccc23)n1
II = CCCCc1cc(-c2c[nH]c3ncc(-c4cnn(C5CCNCC5)c4)cc23)nc(N)n1
Challenge: Compare Activity: is it lower for I or for II ? When you have decided, please share the label of that item.
Response given: II

---

Molecular target: Ribosomal protein S6 kinase beta-1 (Homo sapiens)
Experiment: Inhibition of human S6K1 (1 to 421 residues) assessed as enzyme activity at 1 uM using 33P ATP by radioactive filter binding assay
Design: scale not given: the % may be the effect or the level left
Readout name: Activity (%)

• CCCCc1cc(-c2c[nH]c3ncccc23)nc(N)n1 = -77
• CCc1cc(-c2c[nH]c3ncc(-c4cnn(C5CCNCC5)c4)cc23)nc(N)n1 = -66
• Nc1nccc(-c2c[nH]c3ncccc23)n1 [MERIOLIN 1] = -71
• CCCCc1cc(-c2c[nH]c3ncc(-c4cnn(C5CCNCC5)c4)cc23)nc(N)n1 = -84

---

Assay: Permeability across apical to basolateral side in human Caco2 cells
Type: ADME, cell-based
Conditions: Caco-2
Readout name: Papp A→B (×10⁻⁶ cm/s)

* CCc1cc(-c2c[nH]c3ncc(-c4cnn(CCN(C)C)c4)cc23)nc(N)n1 | 7.3

A = CCc1cc(-c2c[nH]c3ncc(-c4cnn(C)c4)cc23)nc(N)n1
B = CCc1cc(-c2c[nH]c3ncc(-c4cnn(C5CCNCC5)c4)cc23)nc(N)n1
C = CCCCc1cc(-c2c[nH]c3ncc(-c4cnn(C5CCNCC5)c4)cc23)nc(N)n1
D = CCc1cc(-c2c[nH]c3ncc(-c4cnn(CC(C)C)c4)cc23)nc(N)n1
E = CCc1cc(-c2c[nH]c3ncc(-c4cn[nH]c4)cc23)nc(N)n1
Challenge: Sort these compounds on Papp A→B so the largest reading comes first. Rank them, then answer with their labels in that order.
Response given: D, A, B, E, C
